# maps each entry to its pIC50
biological target: IDH1-R132H recombinant protein (Homo sapiens (Human), UniProt O75874, R132H); assay: IDH1-R132H enzymatic assay (inhibition of NADPH consumption, diaphorase/resazurin readout); details: read-out: Enzyme IDH1 R132H IC50 (Range)
Sequence (O75874 whole entry R132H): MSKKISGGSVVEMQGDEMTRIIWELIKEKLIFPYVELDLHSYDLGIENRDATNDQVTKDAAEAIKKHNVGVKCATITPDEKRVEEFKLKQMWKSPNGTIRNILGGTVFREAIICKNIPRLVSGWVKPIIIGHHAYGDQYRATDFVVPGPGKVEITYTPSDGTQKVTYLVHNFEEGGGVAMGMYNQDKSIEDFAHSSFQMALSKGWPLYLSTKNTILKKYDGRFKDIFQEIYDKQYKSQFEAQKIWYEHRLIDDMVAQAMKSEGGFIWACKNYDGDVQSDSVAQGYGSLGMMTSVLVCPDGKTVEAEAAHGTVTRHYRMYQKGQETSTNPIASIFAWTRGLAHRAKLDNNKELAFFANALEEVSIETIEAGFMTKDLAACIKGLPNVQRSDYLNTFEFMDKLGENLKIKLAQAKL
pIC50: −log10 of the molar value.

Here's what some known entries look like.
molecule	pIC50
C[C@H](Nc1nccc([S+](C)[O-])n1)c1cc2cc(Cl)ccc2[nH]c1=O (stereo partly shown)	> 7.00
CC(C)CS(=O)(=O)Cc1ccnc(N[C@@H](C)c2cc3cc(Cl)ccc3[nH]c2=O)n1	6.00 to 7.00
Cc1cnccc1-c1ccnc(N[C@@H](C)c2cc3cc(Cl)ccc3[nH]c2=O)n1	> 7.00
C[C@H](Nc1nccc(N2CCCC2=O)n1)c1cc2cc(Cl)ccc2[nH]c1=O	> 7.00
Cc1cn(-c2ccnc(N[C@@H](C)c3cc4cc(Cl)ccc4[nH]c3=O)n2)cn1	6.00 to 7.00
COc1nc(N[C@H](C)c2cc3cc(Cl)c(F)cc3[nH]c2=O)ncc1C#N	< 5.00
CC(=O)N(CC(C)(C)C)c1ccnc(N[C@@H](C)c2cc3cc(Cl)ccc3[nH]c2=O)n1	> 7.00
CC(C)n1cncc1-c1ccnc(N[C@@H](C)c2cc3cc(Cl)ccc3n(C)c2=O)n1	> 7.00
C[C@H](Nc1nccc(CNS(C)(=O)=O)n1)c1cc2cc(Cl)ccc2[nH]c1=O	5.00 to 6.00
C[C@H](Nc1nccc(-n2ccnc2)n1)c1cc2cc(Cl)ccc2[nH]c1=O	6.00 to 7.00

Looking up C[C@H](Nc1nccc(N(C2CCCOC2)S(C)(=O)=O)n1)c1cc2cc(Cl)ccc2[nH]c1=O (stereo partly shown) , I found its pIC50 recorded as 6.00 to 7.00

Looking up `CC(C)N(c1ccnc(N[C@@H](C)c2cc3cc(Cl)ccc3[nH]c2=O)n1)S(=O)(=O)CC1CC1` , I found its pIC50 recorded as > 7.00

Looking up `Cc1nn(C)cc1-c1ccnc(N[C@@H](C)c2cc3cc(Cl)ccc3[nH]c2=O)n1` , I found its pIC50 recorded as 5.00 to 6.00

Looking up `C[C@H](Nc1nccc(CN(C2CC2)S(C)(=O)=O)n1)c1cc2cc(Cl)ccc2[nH]c1=O` , I found its pIC50 recorded as 6.00 to 7.00

====

target: IDH1-R132C recombinant protein (Homo sapiens (Human), UniProt O75874, R132C); experiment: IDH1-R132C enzymatic assay (inhibition of NADPH consumption, diaphorase/resazurin readout); settings: read-out: Enzyme IDH1 R132C IC50 (Range)
Sequence (O75874 whole entry R132C): as the sequence (O75874 whole entry R132H) above, with H132C counted along it
pIC50: −log10 of the molar value.
# maps each entry to its pIC50

Here's what some known entries look like.
molecule	pIC50
C[C@H](Nc1nccc(N(C2CCCOC2)S(C)(=O)=O)n1)c1cc2cc(Cl)ccc2[nH]c1=O (some centres unmarked) [Compound I-3]	6.00 to 7.00
COc1nc(N[C@@H](C)c2cc3cc(Cl)ccc3[nH]c2=O)ncc1C#N [Compound I-36]	6.00 to 7.00
C[C@H](Nc1nccc(N(CCC2CCOCC2)S(C)(=O)=O)n1)c1cc2cc(Cl)ccc2[nH]c1=O [Compound I-16]	5.00 to 6.00

Looking up CC(C)CNC(=O)c1ccnc(N[C@@H](C)c2cc3cc(Cl)ccc3[nH]c2=O)n1 [Compound I-116] , I found its pIC50 recorded as 6.00 to 7.00

Looking up C[C@H](Nc1nccc(NC(=O)C2CC2)n1)c1cc2cc(Cl)ccc2[nH]c1=O [Compound I-29] , I found its pIC50 recorded as > 7.00

Hello, the source for this data is patent US10280150B2, in case you need it.
